test system: Setaria viridis; assay: Post-emergence herbicidal effect; type: in vivo; conditions: 20 g a.i./ha, assessed visually after about 3 weeks
RECORDED_METRIC: Herbicidal effect against [%] SETVI

>>> print(df.to_string())
                                   molecule     assay_target  measured_result
0  CC#Cc1cc(C)c(C2=C(OC(=O)OCC)C3(CCCC(OCCOC)C3)NC2=O)c(CC)c1 (stereo not drawn) [Example P13]  Setaria viridis             100%
1  CC#Cc1cc(CC)c(C2=C(OC(=O)OCC)C3(CCCC(OCC)C3)NC2=O)c(CC)c1 (single isomer, unassigned) [Example P4]  Setaria viridis             100%
2  CC#Cc1cc(C)c(C2=C(O)C3(CCCC(OCCOC)C3)NC2=O)c(C)c1 (stereo not drawn) [Example D6]  Setaria viridis             100%

# per-item lookup of Herbicidal effect against [%] SETVI; items listed below
1. CC#Cc1cc(C)c(C2=C(OC(=O)OC)C3(CCCC(OCCOC)C3)NC2=O)c(C)c1 (stereo not drawn) [Example P16]
2. CC#Cc1cc(C)c(C2=C(O)C3(CCCC(OCCC)C3)NC2=O)c(C)c1 (stereo not drawn) [Example D3]
3. CC#Cc1cc(C)c(C2=C(OC(=O)OCC)C3(CCCC(OCCOC)C3)NC2=O)c(C)c1 (stereo not drawn) [Example P15]
4. CC#Cc1cc(C)c(C2=C(O)C3(CCCC(OCCOC)C3)NC2=O)c(CC)c1 (stereo not drawn) [Example D8]
5. CC#Cc1ccc(C2=C(O)C3(CCCC(OCCOC)C3)NC2=O)c(CC)c1 (stereo not drawn) [Example D7]
6. CC#Cc1cc(CC)c(C2=C(O)C3(CCCC(OCCOC)C3)NC2=O)c(CC)c1 (stereo not drawn) [Example D5]
7. CC#Cc1cc(C)c(C2=C(OC(=O)OC(C)C)C3(CCCC(OCCOC)C3)NC2=O)c(C)c1 (stereo not drawn) [Example P14]

1. 100%
2. 80%
3. 100%
4. 100%
5. 100%
6. 100%
7. 90%

Value sought for every listed molecule: Herbicidal effect against [%] SETVI.
1. CC#Cc1cc(CC)c(C2=C(OC(=O)C(C)C)C3(CCCC(OCCOC)C3)NC2=O)c(CC)c1 (stereo not drawn) [Example P12]
2. CC#Cc1cc(CC)c(C2=C(O)C3(CCCC(OCC)C3)NC2=O)c(CC)c1 (stereo not drawn) [Example D1]

100%
90%

Values compiled from patent US11178868B2.
